Cited source for all entries: ChEMBL document CHEMBL1201862

- SYSTEM NAME: Zinc finger protein mex-5 (Caenorhabditis elegans, UniProt Q9XUB2)
- Sequence (Q9XUB2 whole entry): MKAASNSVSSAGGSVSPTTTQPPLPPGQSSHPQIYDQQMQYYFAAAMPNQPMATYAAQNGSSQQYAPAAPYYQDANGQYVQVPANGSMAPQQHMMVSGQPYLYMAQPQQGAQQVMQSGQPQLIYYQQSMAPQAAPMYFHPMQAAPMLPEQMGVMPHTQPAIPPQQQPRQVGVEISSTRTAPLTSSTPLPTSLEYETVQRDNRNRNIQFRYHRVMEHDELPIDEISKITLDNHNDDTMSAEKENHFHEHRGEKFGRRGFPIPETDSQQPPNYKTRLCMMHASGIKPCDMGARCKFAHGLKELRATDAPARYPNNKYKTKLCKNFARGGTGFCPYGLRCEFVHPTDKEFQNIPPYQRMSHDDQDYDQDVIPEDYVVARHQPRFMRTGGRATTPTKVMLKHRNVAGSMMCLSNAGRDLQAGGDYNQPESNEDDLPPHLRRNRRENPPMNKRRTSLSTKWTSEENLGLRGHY
- EXPERIMENT: MEX-5/TCR-2 RNA interaction inhibitors, dose response, biochemical, C. elegans, fluorescence polarization (AID 1960)
Activity calls are given as the source filed them.
Give measured EC50 for each item. Keep answers brief.

CCN1/C(=C2/SC(=S)N(NC(C)=O)C2=O)Sc2ccccc21 = > 300 µM (not active)

Batch: EC50 for all items listed.
1. C/N=C1\S/C(=C\c2ccc(O)c(OC)c2)C(=O)N1C
2. CCCCc1cn([C@@H](CCCCN)C(=O)N2CCNCC2)nn1
3. Cc1nc2ccccc2c2oc(C(=O)Nc3ccc4c(c3)OCCO4)cc12
4. NC(=O)[C@@H]1CCCN1Cc1c(C(=O)N2CCc3ccccc3C2)nc2ccc(Cl)cn12

> 300 µM (not active)
26.1 µM (active)
25.9 µM (inconclusive)
47 µM (active)

====

- SYSTEM NAME: Short transient receptor potential channel 4 (Mus musculus, UniProt Q9QUQ5)
- Sequence (Q9QUQ5 whole entry): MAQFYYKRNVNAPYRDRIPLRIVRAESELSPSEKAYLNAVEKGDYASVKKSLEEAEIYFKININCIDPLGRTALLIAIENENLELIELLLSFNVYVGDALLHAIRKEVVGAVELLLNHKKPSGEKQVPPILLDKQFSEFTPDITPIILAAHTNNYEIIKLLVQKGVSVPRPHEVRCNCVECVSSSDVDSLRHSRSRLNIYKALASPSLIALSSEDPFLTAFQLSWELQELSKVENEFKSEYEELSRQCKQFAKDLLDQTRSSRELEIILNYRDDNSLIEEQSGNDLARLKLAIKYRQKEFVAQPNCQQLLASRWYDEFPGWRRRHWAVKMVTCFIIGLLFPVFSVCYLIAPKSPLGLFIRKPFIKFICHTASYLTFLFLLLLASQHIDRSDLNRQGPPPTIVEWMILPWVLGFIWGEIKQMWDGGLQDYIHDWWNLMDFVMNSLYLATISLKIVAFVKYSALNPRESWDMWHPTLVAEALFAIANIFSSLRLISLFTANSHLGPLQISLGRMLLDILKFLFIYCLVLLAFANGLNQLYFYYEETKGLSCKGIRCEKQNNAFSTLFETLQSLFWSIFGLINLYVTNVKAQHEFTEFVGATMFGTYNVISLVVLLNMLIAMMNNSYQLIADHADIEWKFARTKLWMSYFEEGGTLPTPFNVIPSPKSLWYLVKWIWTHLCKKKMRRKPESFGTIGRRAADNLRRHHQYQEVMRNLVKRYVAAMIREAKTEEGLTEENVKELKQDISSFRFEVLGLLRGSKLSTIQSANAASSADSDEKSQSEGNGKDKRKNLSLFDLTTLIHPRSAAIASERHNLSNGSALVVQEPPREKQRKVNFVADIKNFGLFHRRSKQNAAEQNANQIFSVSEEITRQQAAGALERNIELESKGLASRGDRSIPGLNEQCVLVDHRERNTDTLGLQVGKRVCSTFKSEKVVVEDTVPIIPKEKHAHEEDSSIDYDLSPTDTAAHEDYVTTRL
- EXPERIMENT: mouse TRPC4 channel activators, dose response, cell-based, HEK293 TRPC4/mu-opioid, Fluo-4 calcium (AID 434937)
- Type: functional
The source made the active and inactive calls.
MEASUREMENT KIND: EC50

Use these answered entries as a reference point.
Cc1csc2c(N3CCN(C(=O)NC(C)(C)C)CC3)ncnc12 = 5310 nM (active)
CN(C)C=C1C(=O)N(C2CCCCC2)C(=O)N(C2CCCCC2)C1=O = 9440 nM (active)
O=[N+]([O-])c1ccc(N2CCCNCC2)c2ncccc12 = 8 nM (active)
COc1ccc(C(CNC(=O)c2cccc(S(=O)(=O)NCc3ccccc3)c2)N(C)C)cc1 (stereo not given) = 421 nM (active)

Kindly review the next compound as well.
Tested on Short transient receptor potential channel 4 (Mus musculus, UniProt Q9QUQ5), the item `COc1ccc(CN2CCC(n3nccc3NC(=O)CCc3ccccc3)CC2)c(C)c1C` showed EC50 equal to 2110 nM (active)

====

- SYSTEM NAME: Glyceraldehyde-3-phosphate dehydrogenase (Homo sapiens)
- Sequence (P04406 whole entry): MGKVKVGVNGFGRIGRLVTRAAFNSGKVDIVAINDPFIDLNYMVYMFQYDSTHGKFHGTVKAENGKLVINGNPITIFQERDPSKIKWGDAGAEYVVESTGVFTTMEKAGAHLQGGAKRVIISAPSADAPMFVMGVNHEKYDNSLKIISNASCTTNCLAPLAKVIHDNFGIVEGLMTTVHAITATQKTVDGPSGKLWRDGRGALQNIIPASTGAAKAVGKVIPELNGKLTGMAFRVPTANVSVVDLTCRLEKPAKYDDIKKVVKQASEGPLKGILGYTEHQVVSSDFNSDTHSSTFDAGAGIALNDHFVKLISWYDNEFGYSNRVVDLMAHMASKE
MEASUREMENT KIND: IC50

Use these answered entries as a reference point.
Cc1n[nH]c2c1C(=O)CC(C)(C)C2 = > 100 µM (not active)
O=C(c1ccc(Cl)cc1)N1CCCCC(Sc2nnc(-c3ccc4c(c3)OCO4)o2)C1=O (stereo not drawn) = > 100 µM (not active)
Cc1ccc(S(=O)(=O)Nc2cnc3ccccc3c2)cc1 = > 100 µM (not active)
c1ccc(Cn2cnc(-c3cccnc3)c2)cc1 = > 100 µM (not active)
Cc1cccc(Nc2nc(-c3ccccn3)cs2)n1 = > 10 µM (inconclusive)
COc1ccc2c(c1OC)C(=O)N(c1nnc(SC)[nH]1)C2=O = > 100 µM (not active)
CCN(CC)C(=O)c1cc(-c2cc(F)c(Cl)cc2Cl)n[nH]1 = > 10 µM (inconclusive)

Kindly review the next molecule as well.
Tested on Glyceraldehyde-3-phosphate dehydrogenase (Homo sapiens), the item Nc1nc(N2C(=O)C3CC=CCC3C2=O)nn1-c1ccccc1 (stereo not drawn) showed IC50 equal to > 100 µM (not active)

====

- SYSTEM NAME: Polyadenylate-binding protein 1 (Homo sapiens)
- Sequence (P11940 whole entry): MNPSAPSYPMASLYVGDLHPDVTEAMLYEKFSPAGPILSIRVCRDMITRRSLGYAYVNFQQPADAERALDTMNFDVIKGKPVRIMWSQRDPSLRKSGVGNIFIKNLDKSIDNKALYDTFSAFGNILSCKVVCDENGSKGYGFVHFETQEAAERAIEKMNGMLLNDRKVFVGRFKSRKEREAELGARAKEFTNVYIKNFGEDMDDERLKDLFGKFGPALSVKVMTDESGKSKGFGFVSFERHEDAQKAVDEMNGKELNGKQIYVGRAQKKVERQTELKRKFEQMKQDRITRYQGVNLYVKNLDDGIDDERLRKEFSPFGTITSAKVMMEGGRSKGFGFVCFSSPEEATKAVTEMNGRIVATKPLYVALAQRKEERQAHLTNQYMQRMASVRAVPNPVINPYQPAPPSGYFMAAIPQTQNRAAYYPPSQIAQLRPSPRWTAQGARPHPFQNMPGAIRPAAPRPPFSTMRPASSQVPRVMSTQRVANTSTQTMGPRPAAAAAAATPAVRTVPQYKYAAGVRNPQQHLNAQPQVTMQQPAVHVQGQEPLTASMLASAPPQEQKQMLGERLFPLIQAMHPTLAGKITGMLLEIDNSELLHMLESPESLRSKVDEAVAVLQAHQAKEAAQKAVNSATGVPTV
- EXPERIMENT: PABP1 MLLE–PAM2 binding inhibitor potency, dose response, biochemical, fluorescence polarization, FITC-PAM2 peptide (AID 602259)
- Format: functional
- CONDITION DESCRIPTION: read-out: IC50_Mean
Calls of active or inactive are those of the source.
MEASUREMENT KIND: IC50

Batch: IC50 for all items listed.
1. COc1ccc(C(=S)Nc2ccc(C)cc2)cc1
2. CCOc1ccc2c(c1)-c1c(ssc1=S)C(C)(C)N2C(=O)CSC1=NCCS1
3. O=[N+]([O-])c1cccc(C(=S)N2CCN(c3ccccc3)CC2)c1

1. > 66 µM (inactive)
2. > 66 µM (inactive)
3. > 66 µM (inactive)
